# protein stability index per record follows
# protocol: protein stability index of a GFP-peptide fusion (GPS, HEK-293T) (PSI 1-6); higher = more stable;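 note: 24-mer peptide tiles fused after GFP, lentivirally expressed, FACS-sorted into six equal bins by GFP/DsRed ratio, decoded by Illumina sequencing, PSI is the read-weighted mean bin number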
# assaySetup: treatment: MLN4924 1 uM, 8 h; c terminus: a fixed tail appended
Reply with the value as a number alone.

- itemSequence: "GVYSMPAGTKVFEVPEMSPVTCCD [TLE6]"
  protein stability index: 3.45
- itemSequence: "ECTQMDHLGCMHYTVRAPVGVAGL [ALDH8A1]"
  protein stability index: 2.68

Given the sequence SKETRLTLMEEVLLLGLKDREGYT [GOLPH3] , what is its reported protein stability index?
2.75

Given the sequence GTDRIVKIWDMTPVVGCSLATGFS [WDFY1] , what is its reported protein stability index?
2.79

Given the sequence DHKEPKEEINKNISDFGRQQLLPP [EHMT1] , what is its reported protein stability index?
5.16

----------
# protein stability index per record follows
# protocol: protein stability index of a GFP-peptide fusion (GPS, HEK-293T) (PSI 1-6); higher = more stable
# assaySetup: treatment: MLN4924 1 uM, 8 h; c terminus: a fixed tail appended
Reply with the value as a number alone.

- itemSequence: "YDQLKAFLCGRALTSDLYAPMVAG [SLC25A39]"
  protein stability index: 2.04
- itemSequence: "AFHGAPSHLPTRSPSFPEAPDSGR [TBX6]"
  protein stability index: 4.37
- itemSequence: "EFARKGSCFLINTADRIIRVYDGR [RBBP5]"
  protein stability index: 2.24

Given the sequence SCCMTEEIFGPVTCVVPFDSEEEV [ALDH8A1] , what is its reported protein stability index?
4.83

Given the sequence LSKASEPKYQLFVPQLVTGRCATR [RNF180] , what is its reported protein stability index?
2.94

Given the sequence SKAAAGKMNLYESFAQATQLGDLH [INTS3] , what is its reported protein stability index?
3.58

----------
# protocol: protein stability index of a GFP-peptide fusion (GPS, HEK-293T) (PSI 1-6); higher = more stable
# assaySetup: treatment: DMSO; c terminus: a fixed tail appended
# protein stability index per record follows
Reply with the value as a number alone.

- itemSequence: "DRTWTLCGTPEYLAPEVIQSKGHG [PRKX]"
  protein stability index: 3.91

Given the sequence EDEGFLREEERPLPRRDFQRQVWL [KCNA3] , what is its reported protein stability index?
3.97

Given the sequence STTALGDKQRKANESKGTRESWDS [ELOA2] , what is its reported protein stability index?
4.06

Given the sequence ADTRRLNSKPQDLTDAYGPPSNFL [SNX12] , what is its reported protein stability index?
3.97

----------
# protein stability index per record follows
# protocol: protein stability index of a GFP-peptide fusion (GPS, HEK-293T) (PSI 1-6); higher = more stable
# assaySetup: treatment: DMSO; c terminus: a fixed tail appended
Reply with the value as a number alone.

- itemSequence: "GTFCSLDICLAQLEELGTLNVFQT [PTPN9]"
  protein stability index: 2.93
- itemSequence: "DRAAKRLSLESEGAGEGAAASPEL [TPPP]"
  protein stability index: 5.38
- itemSequence: "LRFLYSDEVQIGPETVMTTLYTAK [BTBD1]"
  protein stability index: 2.48
- itemSequence: "VTLQCLAARALDKNKIPYKGFIPE [FEM1A]"
  protein stability index: 2.69
- itemSequence: "PQELINYVQTVDFMRTDNTCVNLL [KLHL13]"
  protein stability index: 2.46
- itemSequence: "RAACFDGHLEVVRYLVGEHQADLE [FEM1A]"
  protein stability index: 3.31
- itemSequence: "HCRKCGQAVCGKCSSKRSSYPVMG [WDFY1]"
  protein stability index: 3.88
- itemSequence: "LSGASPFLGETKQETLTNISAVNY [DAPK3]"
  protein stability index: 3.73

Let us examine a further case.
Given the sequence PKTGRISVPIDLQKVDQFDPFTVP [PRIM1] , what is its reported protein stability index?
3.6
